Measured Ki on Human immunodeficiency virus type 1 protease (Human immunodeficiency virus 1) follows.
Output spec: scalar in nM, unitless text.

Summary for this compound, `COc1ccc(S(=O)(=O)N(CC(C)C)C[C@@H](O)[C@H](Cc2ccccc2)NC(=O)c2cccc(Nc3nc(-c4cccnc4)cs3)c2C)cc1` : Ki is 19.3

Summary for this compound, `COc1ccc(S(=O)(=O)N(CC(C)C)C[C@@H](O)[C@H](Cc2ccccc2)NC(=O)c2ccc(C)c(Nc3nccc(-c4cccnc4)n3)c2)cc1` : Ki is 0.028

Summary for this compound, `COc1ccc(S(=O)(=O)N(CC(C)C)C[C@@H](O)[C@H](Cc2ccccc2)NC(=O)c2ccc(C)c(Nc3nc(C)cs3)c2)cc1` : Ki is 26.5

Summary for this compound, `COc1ccc(S(=O)(=O)N(CC(C)C)C[C@@H](O)[C@H](Cc2ccccc2)NC(=O)c2cc(Nc3nc(-c4cccnc4)cs3)ccc2C)cc1` : Ki is 8.7
